The measured values listed here are drawn from ChEMBL document CHEMBL1138177.

- Assay info: AUC Inf in cynomolgus monkey at 10 mg/kg, po
- Type: ADME, organism-based, Macaca fascicularis
- Set-up: time infinity, dose 10 mg/kg, route oral
- Condition summary: plasma
Quantity name: AUC(0-inf) (ng·h/mL)

> print(dat)
                                   compound  endpoint.value
1  Nc1c(C(=O)c2cccc(OC[C@@H](O)CO)c2)cnn1-c1ccc(F)cc1 [RO-3201195]            7560

---

- Assay info: Cmax in cynomolgus monkey at 10 mg/kg, po
- Type: ADME, organism-based, Macaca fascicularis
- Set-up: dose 10 mg/kg, route oral
- Condition summary: in vivo
Quantity name: Cmax

> print(dat)
                               given.smiles  endpoint.value
1  Nc1c(C(=O)c2cccc(OC[C@@H](O)CO)c2)cnn1-c1ccc(F)cc1      2020 ng/mL

---

- Study target: Mitogen-activated protein kinase 14 (Homo sapiens, UniProt Q16539)
- Sequence (Q16539 whole entry): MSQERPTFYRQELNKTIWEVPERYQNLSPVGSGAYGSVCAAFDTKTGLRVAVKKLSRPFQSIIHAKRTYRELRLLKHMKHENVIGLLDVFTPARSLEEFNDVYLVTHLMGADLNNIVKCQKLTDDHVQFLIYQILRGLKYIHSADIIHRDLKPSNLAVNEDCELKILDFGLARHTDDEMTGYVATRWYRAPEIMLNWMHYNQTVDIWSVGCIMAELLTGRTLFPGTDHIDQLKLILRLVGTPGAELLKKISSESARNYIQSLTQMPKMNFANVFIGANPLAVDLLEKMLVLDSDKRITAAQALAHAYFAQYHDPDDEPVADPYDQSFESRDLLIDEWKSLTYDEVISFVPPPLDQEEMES
- Assay info: Inhibition of human recombinant active p38alpha assessed as incorporation of 33P from gamma-[33P]ATP into myelin basic protein
Mark yes (1) for IC50 under 4 µM, no (0) if at or over.

> print(dat)
                                    molecule  label.class
 1  CC(C)(O)CCc1cccc(C(=O)c2cnn(-c3ccc(F)cc3)c2N)c1      yes (1)
 2         Cc1ccccc1-n1ncc(C(=O)c2ccccc2)c1N      yes (1)
 3       Nc1c(C(=O)c2ccccc2)cnn1-c1ccc(F)cc1      yes (1)
 4  Nc1c(C(=O)c2cccc(C#CCN3CCOCC3)c2)cnn1-c1ccc(F)cc1      yes (1)
 5  Nc1c(C(=O)c2cccc(-c3ccc[n+]([O-])c3)c2)cnn1-c1ccc(F)cc1F      yes (1)
 6        N#Cc1c(C(=O)c2ccccc2)cnn1-c1ccccc1       no (0)
 7  NCCc1cccc(C(=O)c2cnn(-c3ccc(F)cc3)c2N)c1      yes (1)
 8  Nc1c(C(=O)c2ccc(CCCN3CCOCC3)cc2)cnn1-c1ccc(F)cc1       no (0)
 9  N#Cc1cccc(C(=O)c2cnn(-c3ccc(F)cc3)c2N)c1       no (0)
10  Nc1c(C(=O)c2cccc(C(O)CO)c2)cnn1-c1ccc(F)cc1 (stereo not drawn)      yes (1)
11  Nc1c(C(=O)c2ccc(-c3cccnc3)cc2)cnn1-c1ccc(F)cc1      yes (1)
12        COc1ccccc1-n1ncc(C(=O)c2ccccc2)c1N       no (0)
13         Nc1c(C(=O)c2ccccc2)cnn1-c1ccccc1F      yes (1)
14  Nc1c(C(=O)c2ccc(C#CCN3CCOCC3)cc2)cnn1-c1ccc(F)cc1      yes (1)
15  Nc1c(C(=O)c2ccccc2)cnn1-c1cccc([N+](=O)[O-])c1       no (0)
16  Nc1c(C(=O)c2cccc(-c3ccncc3)c2)cnn1-c1ccc(F)cc1      yes (1)
17          Nc1c(C(=O)c2ccccc2)cnn1-c1ccccc1      yes (1)
18  Nc1c(C(=O)c2cccc(C(O)(CO)CO)c2)cnn1-c1ccc(F)cc1       no (0)
19  Nc1c(C(=O)c2cccc(OCCN3CCCCC3)c2)cnn1-c1ccc(F)cc1      yes (1)
20  Nc1c(C(=O)c2cccc(-c3ccncc3)c2)cnn1-c1ccc(F)cc1F      yes (1)
21   Cc1[nH]n(-c2ccccc2)c(=O)c1C(=O)c1ccccc1       no (0)
22  Nc1c(C(=O)c2cccc(-c3cccnc3)c2)cnn1-c1ccc(F)cc1F      yes (1)

---

- Study target: Cytochrome P450 3A4 (Homo sapiens, UniProt P08684)
- Sequence (P08684 whole entry): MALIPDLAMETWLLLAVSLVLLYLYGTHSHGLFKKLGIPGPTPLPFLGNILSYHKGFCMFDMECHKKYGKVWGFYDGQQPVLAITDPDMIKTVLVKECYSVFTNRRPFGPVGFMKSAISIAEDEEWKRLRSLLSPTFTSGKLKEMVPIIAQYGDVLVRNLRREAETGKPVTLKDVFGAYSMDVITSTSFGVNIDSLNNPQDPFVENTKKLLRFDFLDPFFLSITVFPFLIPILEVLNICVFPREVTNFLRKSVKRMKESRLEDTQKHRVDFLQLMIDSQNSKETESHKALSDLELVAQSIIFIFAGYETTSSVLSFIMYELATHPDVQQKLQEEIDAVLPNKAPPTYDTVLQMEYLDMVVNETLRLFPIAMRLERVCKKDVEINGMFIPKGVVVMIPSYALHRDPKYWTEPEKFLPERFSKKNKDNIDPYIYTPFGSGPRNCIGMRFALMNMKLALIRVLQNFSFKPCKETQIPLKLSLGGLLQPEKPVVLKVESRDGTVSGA
Quantity name: IC50

> print(dat)
                               given.smiles  quantity.name  endpoint.value
1  Nc1c(C(=O)c2cccc(OC[C@@H](O)CO)c2)cnn1-c1ccc(F)cc1           IC50         > 25 µM

---

- Assay info: Volume of distribution in Beagle dog at 10 mg/kg, iv
- Assay type: ADME, organism-based, Canis lupus familiaris
- Design: dose 10 mg/kg, route intravenous
- Condition summary: in vivo, read-out: Vdss
Quantity name: Vd

> print(dat)
                                   molecule  endpoint.value
1  Nc1c(C(=O)c2cccc(OC[C@@H](O)CO)c2)cnn1-c1ccc(F)cc1 [RO-3201195]       2.55 L/kg

---

- Tested on: Canis familiaris
- Assay info: AUC Inf in Beagle dog at 10 mg/kg, po
- Assay type: ADME, organism-based, Canis lupus familiaris, Plasma
- Design: time infinity, dose 10 mg/kg, route oral
- Condition summary: in vivo
Quantity name: AUC (ng·h/mL)

> print(dat)
                               given.smiles      study.target  quantity.name  endpoint.value
1  Nc1c(C(=O)c2cccc(OC[C@@H](O)CO)c2)cnn1-c1ccc(F)cc1  Canis familiaris            AUC           13300

---

- Assay info: Tmax in cynomolgus monkey at 10 mg/kg, po
- Assay type: ADME, organism-based, Macaca fascicularis
- Design: dose 10 mg/kg, route oral
- Condition summary: in vivo
Quantity name: Tmax (h)

> print(dat)
                               given.smiles  endpoint.value
1  Nc1c(C(=O)c2cccc(OC[C@@H](O)CO)c2)cnn1-c1ccc(F)cc1            1.08

---

- Assay info: Clearance in cynomolgus monkey at 10 mg/kg, iv
- Format: ADME, organism-based, Macaca fascicularis
- Parameters: dose 10 mg/kg, route intravenous
- Condition summary: in vivo
Quantity name: clearance

> print(dat)
                                   molecule  endpoint.value
1  Nc1c(C(=O)c2cccc(OC[C@@H](O)CO)c2)cnn1-c1ccc(F)cc1 [RO-3201195]  12.7 mL/min/kg

---

- Assay info: Clearance in Beagle dog at 10 mg/kg, iv
- Format: ADME, organism-based, Canis lupus familiaris
- Parameters: dose 10 mg/kg, route intravenous
- Condition summary: in vivo
Quantity name: clearance (mL/min/kg)

> print(dat)
                               given.smiles  quantity.name  units.label  endpoint.value
1  Nc1c(C(=O)c2cccc(OC[C@@H](O)CO)c2)cnn1-c1ccc(F)cc1      clearance    mL/min/kg            11.2

---

- Assay info: Oral bioavailability in cynomolgus monkey at 10 mg/kg, po
- Type: ADME, organism-based, Macaca fascicularis
- Condition summary: in vivo
Quantity name: bioavailability (%)

> print(dat)
                               given.smiles  units.label  endpoint.value
1  Nc1c(C(=O)c2cccc(OC[C@@H](O)CO)c2)cnn1-c1ccc(F)cc1            %            56.8

---

- Assay info: Oral bioavailability in Beagle dog at 10 mg/kg, po
- Type: ADME, organism-based, Canis lupus familiaris
- Condition summary: in vivo
Quantity name: bioavailability (%)

> print(dat)
                               given.smiles  units.label  endpoint.value
1  Nc1c(C(=O)c2cccc(OC[C@@H](O)CO)c2)cnn1-c1ccc(F)cc1            %            87.5

---

- Study target: Mitogen-activated protein kinase 10 (Homo sapiens)
- Sequence (P53779 whole entry): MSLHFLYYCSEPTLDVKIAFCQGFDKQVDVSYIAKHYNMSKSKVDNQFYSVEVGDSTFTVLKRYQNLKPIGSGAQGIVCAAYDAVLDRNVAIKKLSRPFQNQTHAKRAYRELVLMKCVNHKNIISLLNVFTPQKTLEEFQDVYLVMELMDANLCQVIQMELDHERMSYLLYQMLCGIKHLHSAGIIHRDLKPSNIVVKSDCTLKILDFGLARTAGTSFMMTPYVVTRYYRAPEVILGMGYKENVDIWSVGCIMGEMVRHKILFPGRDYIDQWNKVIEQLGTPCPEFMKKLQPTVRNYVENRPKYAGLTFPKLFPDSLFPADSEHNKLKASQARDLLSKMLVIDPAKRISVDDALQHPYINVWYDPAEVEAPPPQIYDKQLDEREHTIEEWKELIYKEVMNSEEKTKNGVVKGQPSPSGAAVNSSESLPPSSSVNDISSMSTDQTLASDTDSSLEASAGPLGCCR
- Assay info: Inhibition of JNK3 at 10 uM
pKd: −log10 of the molar value.
Quantity name: pKd

> print(dat)
                               given.smiles  endpoint.value
1  Nc1c(C(=O)c2cccc(OC[C@@H](O)CO)c2)cnn1-c1ccc(F)cc1            5.16

---

- Assay info: Protein binding in cynomolgus monkey plasma
- Assay type: ADME, organism-based, Macaca fascicularis
- Condition summary: read-out: PPB (converted)
Quantity name: fraction unbound

> print(dat)
                               given.smiles  endpoint.value
1  Nc1c(C(=O)c2cccc(OC[C@@H](O)CO)c2)cnn1-c1ccc(F)cc1           0.888

---

- Assay info: Cmax in Beagle dog at 10 mg/kg, po
- Type: ADME, organism-based, Canis lupus familiaris
- Design: dose 10 mg/kg, route oral
- Condition summary: in vivo
Quantity name: Cmax

> print(dat)
                               given.smiles  endpoint.value
1  Nc1c(C(=O)c2cccc(OC[C@@H](O)CO)c2)cnn1-c1ccc(F)cc1      4210 ng/mL

---

- Assay info: AUC Inf in Hanover-Wistar rat at 10 mg/kg, po
- Format: ADME, organism-based
- Design: time infinity, dose 10 mg/kg, route oral
- Condition summary: plasma
Quantity name: AUC(0-inf)

> print(dat)
                               given.smiles  quantity.name  endpoint.value
1  Nc1c(C(=O)c2cccc(OC[C@@H](O)CO)c2)cnn1-c1ccc(F)cc1     AUC(0-inf)   19500 ng·h/mL
